# targetOrSystem: UniProt:O75907
# Sequence (O75907 1-488): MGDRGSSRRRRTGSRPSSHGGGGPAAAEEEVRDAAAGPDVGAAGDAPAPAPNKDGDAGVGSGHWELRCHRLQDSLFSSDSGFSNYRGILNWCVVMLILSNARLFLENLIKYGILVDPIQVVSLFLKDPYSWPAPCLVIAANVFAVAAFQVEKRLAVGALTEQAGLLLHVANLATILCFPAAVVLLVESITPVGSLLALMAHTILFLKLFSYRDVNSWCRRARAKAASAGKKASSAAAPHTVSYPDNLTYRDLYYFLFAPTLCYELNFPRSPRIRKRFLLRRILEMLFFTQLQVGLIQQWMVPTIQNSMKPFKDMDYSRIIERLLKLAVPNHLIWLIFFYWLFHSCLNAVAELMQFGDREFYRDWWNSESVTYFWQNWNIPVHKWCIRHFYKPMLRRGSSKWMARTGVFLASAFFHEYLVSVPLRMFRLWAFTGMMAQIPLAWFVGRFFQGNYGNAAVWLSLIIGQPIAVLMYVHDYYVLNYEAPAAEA
# methodSummary: DGAT CHOK1 Cell Assay
# experimentalParameters: CHOK1 cells transfected with DGAT1, 14C palmitic acid, 1 hour at 37° C., triglyceride by TLC
attributeMeasured: EC50 (nM)

CC(C)N(NC(=O)C1CCOCC1)C(=O)COc1ccc(F)cc1-c1ccccc1OC(F)(F)F [Example 34] has a reported EC50 of 1240

CC(C)N(NC(=O)C1CCSCC1)C(=O)COc1ccc(F)cc1-c1ccccc1OC(F)(F)F [Example 41] has a reported EC50 of 774

COc1ccccc1-c1cc(F)ccc1OCC(=O)N(NC(=O)c1ccccc1)C(C)C [Example 4] has a reported EC50 of 1810

Cc1ccccc1-c1cc(F)ccc1OCC(=O)N(NC(=O)c1ccccc1)C(C)C [Example 3] has a reported EC50 of 1020

CC(C)N(NC(=O)c1ccccc1)C(=O)COc1ccc(F)cc1-c1ccc(F)cc1F [Example 24] has a reported EC50 of 2930

Cc1ccc(OCC(=O)N(NC(=O)c2ccccc2)C(C)C)c(-c2ccccc2OC(F)(F)F)c1 [Example 31] has a reported EC50 of 776

I. CCc1ccccc1-c1cc(F)ccc1OCC(=O)N(NC(=O)c1ccccc1)C(C)C [Example 16]
II. CC(C)N(NC(=O)c1ccccc1)C(=O)COc1ccc(F)cc1-c1ccccc1Cl [Example 2]
Query block: Param pair: I , II . Output: the one whose EC50 is numerically greater. Please respond with the label that marks your chosen entry.
Result block: II
(II: 3100 nM, I: 216 nM)

====

# targetOrSystem: DGAT1 (Homo sapiens, UniProt O75907)
# methodSummary: DGAT CHOK1 Cell Assay
# experimentalParameters: CHOK1 cells transfected with DGAT1, 14C palmitic acid, 1 hour at 37° C., triglyceride by TLC
attributeMeasured: EC50 (nM)

Here is how some compounds turned out for EC50.
`CC(C)N(NC(=O)C1CCCCC1)C(=O)COc1ccc(F)cc1-c1ccccc1OC(F)(F)F` has a reported EC50 of 2810

`CC(C)N(NC(=O)c1ccccc1)C(=O)COc1ccc(F)cc1-c1ccc(F)cc1` has a reported EC50 of 8300

1. CC(C)CNc1ccc(C(=O)NN(C(=O)COc2ccc(F)cc2-c2ccccc2OC(F)(F)F)C(C)C)cc1
2. CC(C)N(NC(=O)c1ccccc1)C(=O)COc1ccc(F)cc1-c1cccc(Cl)c1
3. CC(C)N(NC(=O)c1ccccc1)C(=O)COc1ccc(F)cc1-c1ccccc1F
Query block: Hey, quick one: sort these by EC50, largest value first please. Show the ranking through the labels, in the order asked for.
Result block: 3, 2, 1
(3: 2210 nM, 2: 910 nM, 1: 348 nM)

====

# targetOrSystem: DGAT1 (Homo sapiens)
# methodSummary: DGAT CHOK1 Cell Assay
# experimentalParameters: CHOK1 cells transfected with DGAT1, 14C palmitic acid, 1 hour at 37° C., triglyceride by TLC
# Excerpt: Materials for the assay were: petroleum ether (J. T. Baker #9268-22); diethyl ether (Aldrich #30995-8); acetic acid; 1,2-dioleoyl-3-palmitoyl-glycerol (Sigma D-1782); ^[…] Palmitic Acid (56.0 mCi/mmol PerkinElmer Life Sciences # NEC 075H); DMEM/F12 (Gibco #11330-032); fetal bovine serum; L-Glutamine; G418/ml media; DMEM High Glucose (Gibco #11995-065); BSA Fraction V Fatty Acid Free (Roche #100 377); 20×°cm silica gel 60 glass plates (EM Science Plates #5721/7). […]
attributeMeasured: EC50 (nM)

Here is how some molecules turned out for EC50.
CCCOc1ccccc1-c1cc(F)ccc1OCC(=O)N(NC(=O)c1ccccc1)C(C)C [Example 17] has a reported EC50 of 2170

CC(C)N(NC(=O)c1ccccc1)C(=O)CSc1ccccc1-c1cccc(F)c1 [Example 48] has a reported EC50 of 3400

CCc1ccccc1-c1cc(F)cc(F)c1OCC(=O)N(NC(=O)c1ccccc1)C(C)C [Example 28] has a reported EC50 of 296

COc1cccc(-c2ccccc2SCC(=O)N(NC(=O)c2ccccc2)C(C)C)c1 [Example 50] has a reported EC50 of 1290

CC(C)c1ccccc1-c1cc(F)ccc1OCC(=O)N(NC(=O)c1ccccc1)C(C)C [Example 22] has a reported EC50 of 380

CC(C)N(NC(=O)c1ccccc1)C(=O)CSc1ccccc1-c1ccccc1F [Example 54] has a reported EC50 of 1430

P. COCCOc1ccc(C(=O)NN(C(=O)COc2ccc(F)cc2-c2ccccc2OC(F)(F)F)C(C)C)cc1 [Example 39]
Q. CC(C)N(NC(=O)c1ccccc1)C(=O)CSc1ccccc1-c1cccc(C(F)(F)F)c1 [Example 52]
Query block: Param pair: P , Q . Output: the one whose EC50 is numerically greater. Please respond with the label that marks your chosen entry.
Result block: P
(P: 3050 nM, Q: 1600 nM)

====

# targetOrSystem: DGAT1 (Homo sapiens)
# methodSummary: DGAT CHOK1 Cell Assay
# experimentalParameters: CHOK1 cells transfected with DGAT1, 14C palmitic acid, 1 hour at 37° C., triglyceride by TLC
attributeMeasured: EC50 (nM)

Here is how some compounds turned out for EC50.
`CC(C)N(NC(=O)c1ccccc1)C(=O)COc1c(F)cc(F)cc1-c1ccccc1OC(F)(F)F` has a reported EC50 of 356

`CCc1ccccc1-c1cc(C)ccc1OCC(=O)N(NC(=O)c1ccccc1)C(C)C` has a reported EC50 of 880

`Cc1cccc(-c2ccccc2SCC(=O)N(NC(=O)c2ccccc2)C(C)C)c1C` has a reported EC50 of 5670

`COC(=O)c1ccccc1-c1cc(F)ccc1OCC(=O)N(NC(=O)c1ccccc1)C(C)C` has a reported EC50 of 2690

`COc1ccc(-c2ccccc2SCC(=O)N(NC(=O)c2ccccc2)C(C)C)cc1` has a reported EC50 of 2300

`CC(C)N(NC(=O)c1cccs1)C(=O)COc1ccc(F)cc1-c1ccccc1OC(F)(F)F` has a reported EC50 of 3480

1. CCc1ccccc1-c1cc(F)c(F)cc1OCC(=O)N(NC(=O)c1ccccc1)C(C)C
2. CSc1ccccc1-c1cc(F)ccc1OCC(=O)N(NC(=O)c1ccccc1)C(C)C
Query block: I'm curious, which of these has a smaller EC50 number: 1 or 2 ? Please respond with the label that marks your chosen entry.
Result block: 2

====

# targetOrSystem: DGAT1 (Homo sapiens, UniProt O75907)
# methodSummary: DGAT CHOK1 Cell Assay
# experimentalParameters: CHOK1 cells transfected with DGAT1, 14C palmitic acid, 1 hour at 37° C., triglyceride by TLC
attributeMeasured: EC50 (nM)

The molecule `CC(C)N(NC(=O)c1ccccc1)C(=O)COc1ccc(F)cc1-c1cccc(F)c1` on DGAT1 (Homo sapiens, UniProt O75907): EC50 was 3780

The molecule `CCc1ccccc1-c1cc(C#N)ccc1OCC(=O)N(NC(=O)c1ccccc1)C(C)C` on DGAT1 (Homo sapiens, UniProt O75907): EC50 was 1370

The molecule `CC(C)N(NC(=O)c1ccoc1)C(=O)COc1ccc(F)cc1-c1ccccc1OC(F)(F)F` on DGAT1 (Homo sapiens, UniProt O75907): EC50 was 11100

The molecule `Cc1cccc(-c2cc(F)ccc2OCC(=O)N(NC(=O)c2ccccc2)C(C)C)c1C` on DGAT1 (Homo sapiens, UniProt O75907): EC50 was 1300

The molecule `CC(C)N(NC(=O)c1ccccc1)C(=O)COc1ccc(F)cc1-c1ccccc1` on DGAT1 (Homo sapiens, UniProt O75907): EC50 was 1850

A. CC(C)N(NC(=O)c1ccccc1)C(=O)COc1ccc(F)cc1-c1ccccc1OC(F)(F)F
B. CC(C)N(NC(=O)c1ccccc1)C(=O)COc1cc(F)c(F)cc1-c1ccccc1OC(F)(F)F
C. Cc1cc(F)ccc1-c1cc(F)ccc1OCC(=O)N(NC(=O)c1ccccc1)C(C)C
D. CC(C)N(NC(=O)c1ccsc1)C(=O)COc1ccc(F)cc1-c1ccccc1OC(F)(F)F
Query block: // ascending sort on recorded EC50 Show the ranking through the labels, in the order asked for.
Result block: A, B, C, D
